These data points were gathered from the supplement of paper PMC7125110.

B1: glmS ribozyme (parent)
chain: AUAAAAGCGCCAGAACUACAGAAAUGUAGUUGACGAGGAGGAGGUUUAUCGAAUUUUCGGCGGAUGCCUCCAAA

variants of: B1; assay: self-cleavage kobs at 10000 uM GlcN6P; higher = faster cleavage; RNA array; details: with glucosamine-6-phosphate
Variants at the floor of the assay were thinned out.
test readout: self-cleavage kobs at 10000 uM GlcN6P (s⁻¹)
Express it in s⁻¹; write the number only.

# lookup: self-cleavage kobs at 10000 uM GlcN6P of `AUAAAAGCGCCAGAACUACAGAAAUGUAGUUGACGAGGAGGAGGUUUUUCGAAUUUUCGGCGGAUGGCUCCAAA`
4.58e-05

One more variant: `AUAAAAGCGCCAGGACUACAGAAAUGUAGUUGACGAGGAGGAGGUCUAUCGAAUUUUCGGCGGAUGCCUCCAAA`
0.00545

One more variant: `AUAAAAGCGCCAGAACUACAGAAAUGUAAUUGACGAGGAGGAGGUCUAUCGAAUUUUCGGCGGAUGCCUCCAAA`
0.000216

One more variant: `AUAAAAGCGCCAGAACUACAGAAAUGUAGUUGACGAGGAGGAGGUUUAUCGAAUUUUGGGCGGAUGCCUCUAAA`
7.36e-05

One more variant: `AUAAAAGCGCCAGAAAUACAGAAAUGUAGUUGACGAGGAGGAGGUUUAUCGAAUUUUCGGCGGGUGCCUCCAAA`
0.00113

One more variant: `AUAAAAGCGCCAGAACUACAGAAAUGUAGUUUACGAGGAGAAGGUUUAUCGAAUUUUCGGCGGAUGCCUCCAAA`
0.00015

One more variant: `AUAAAAGCGCCAGAACUACAGAAAUGUAGUUGACGAGGAGGAGGUUUAUCGACUUUUCGGCGGAUCCCUCCAAA`
0.000368

One more variant: `AUAAAAGCGCCAGAACUACAGAAAUGUAGUUGACGAGGAGGAGGUUUAUCGAAUUUUCGGCGGAUUACUCCAAA`
0.00241

One more variant: `AUAAAAGCGCCUGAACUACAGAAAUGUAGUCGACGAGGAGGAGGUUUAUCGAAUUUUCGGCGGAUGGCUCCAAA`
0.000267
